tested on: HeLa; assay: Antiproliferative activity against human HeLa cells after 72 hrs by MTT assay; assay type: functional, cell-based
Below, each entry is listed alongside its reported EC50.
Unit µM implied. Number only.

* O=c1cc(-c2ccc(O)cc2)oc2cc(O)cc(O)c12 | 92.7

Task item: // returns reported EC50 for input `O=C1C[C@@H](c2ccccc2)Oc2cc(O)cc(O)c21`
Reply: 108

Task item: Now this one: `O=c1cc(-c2ccccc2)oc2cc(O)cc(O)c12`
Reply: 111

====

tested on: A549; test: Antiproliferative activity against human A549 cells after 72 hrs by MTT assay; assay type: functional, cell-based; settings: A549, 72 h
pEC50: −log10 of the molar value.
Measurement kind: pEC50

Please review the following examples before continuing.
• COc1ccc(/C=C/C(=O)O)cc1O = < 3.29
• O=c1cc(-c2ccccc2)oc2cc(O)c(C/C=C/c3ccccc3)c(O)c12 = < 3.57
• COc1ccc(/C=C/C(=O)O)cc1OC = < 3.32
• COc1cc(O)c2c(c1)O[C@H](c1ccccc1)CC2=O = < 3.43

Task item: // returns reported pEC50 for input `COc1cc(O)c2c(=O)cc(-c3ccccc3)oc2c1`
Reply: < 3.43
